# System: T1, human TGFβ2, mature receptor-binding domain (human, UniProt P09858 303-414 (pig entry), The mature TGFβ2 is a disulfide-linked homodimer of this 112-residue chain. The 4A11 epitope spans both monomers (p-1207).)
# T1 sequence: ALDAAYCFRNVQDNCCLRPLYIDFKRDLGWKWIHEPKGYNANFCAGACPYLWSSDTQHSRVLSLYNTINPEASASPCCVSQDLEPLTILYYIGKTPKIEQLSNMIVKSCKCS
# Test Protocol: cell-based or functional assay
The entries below come with measured Blocking IC50 values attached.
The reply should be a number in nM, with the unit left off.

Some binders with recorded Blocking IC50:
1D11 (antibody, V domains shown, also called pan-TGFβ antibody 1D11) VH: QVQLQQSGPELVRPGASVKLSCKASGYIFITYWMNWVKQRPGQGLEWIGQIFPASGSTNYNEMFEGKATLTVDTSSSTAYMQLSSLTSEDSAVYYCARGDGNYALDAMDYWGQGTSVTVSS VL: DIVLTQSPASLAVSLGQRATISCRASESVDSYGNSFMHWYQQKSGQPPKLLIYLASNLESGVPARFSGSGSRTDFTLTIDPVEADDAATYYCQQNNEDPLTFGAGTKLEIK
3.6
2A10 (antibody, V domains shown, anti-TGFβ3; also called rat 2A10; r2A10) VH: EVQLVESGGGLVQPKGSLKLSCAASGFDFNSYGMSWVRQAPGKGLDLVADIVSKTYNYTTYYSDSVKDRFTISRDDSQSMVYLQMDNLKTEDTALYYCTVAPGGSFDYWGQGVMVTVSS VL: DIVLTQSPALAVSLGQRATISCRASQSVSISRFNLMHWYQHKPGQQPKLLIYRASNLASGIPARFSGSGSGTDFTLTINPVQADDLATYYCQHSRESPWTFGGGTKLEIK
193
6F12 (antibody, V domains shown, anti-TGFβ2; called rat and rabbit in different places; also called rat 6F12; r6F12) VH: QVQLKESGPGLVQPSQTLSLTCTVSGFSLTTYNVHWVRQPPGKGLEWMGLIWNTGGTRYNSALKSRLSISKDTSKSQVFLRMNSLQTEDTATYYCARDPVPNKWHFDFWGPGTMVTVSS VL: DIQMTQSPASLSASLGETVTIECLASEDIYSNLAWYQQKPGKSPQLLIYDARSLQDGVPSRFSGSESGPQYSLEINSLQSEDAVTYFCQQHHAYPFTFGSGTKLEIK
0.04

Please look at the following binder next.
Challenge: Consider the binder shown here: 4A11 (antibody, V domains shown, anti-TGFβ2/3, recombinant rabbit monoclonal; some paragraphs print the H/L pair as 32/33; also called Rb1.4A11; Rbt 4A11) VH: QSLEESGGRLVTPGTPLTLTCTVSGFSLSSYTVNWVRQAPGKGLEWIGYISYGGSAYYASWANGRFTISKTSATVDLKITSPTTEDTATYFCARHMQVGGAPTGSMAAFDPWGPGTLVTVSS VL: AAVLTQTPSPVSAAVGGTVSISCQSSQSVYNNNYLSWFQQKPGQPPKLLIYGASTLTSGVPSRFKGSGSGTQFTLTISDVQCDDAATYYCAGGYSGSSDKYAFGGGTEVVVKG What is its recorded Blocking IC50?
Response given: 0.25
